Hello, the source for this data is the supplement of paper PMC4862054, in case you need it.

System: MDA-MB-231
test-parameters: 72 h
measured-endpoint: EC50, CellTiter-Blue viability
Report the figure along with its unit, number first.

The compound "CC[C@@]1(O)C(=O)OCc2c1cc1n(c2=O)Cc2cc3c(CN(C)C)c(O)ccc3nc2-1" showed EC50, CellTiter-Blue viability equal to 612 nM

The compound "CS(=O)(=O)N1CCN(Cc2cc3nc(-c4cccc5[nH]ncc45)nc(N4CCOCC4)c3s2)CC1" showed EC50, CellTiter-Blue viability equal to 2240 nM

The compound "O=C(NC[C@H](O)CO)c1ccncc1Nc1ccc(I)cc1F" showed EC50, CellTiter-Blue viability equal to 19.7 nM

The compound "CO[C@@H](C(=O)N1Cc2[nH]nc(NC(=O)c3ccc(N4CCN(C)CC4)cc3)c2C1)c1ccccc1" showed EC50, CellTiter-Blue viability equal to 1180 nM

###

Tested on: HCC1937
test-method-notes: normalised response (% of control), CellTox Green; higher = less cell death (100 = DMSO, 0 = benzethonium chloride kill control)
test-parameters: incubation time: 72 h
measured-endpoint: normalised response (%)
# value in %; strip the unit string

The molecule C[C@]12O[C@H](C[C@]1(O)CO)n1c3ccccc3c3c4c(c5c6ccccc6n2c5c31)CNC4=O [Lestaurtinib] (100 nM) showed normalised response equal to 81.8

The molecule Cc1ccc(Nc2nccc(N(C)c3ccc4c(C)n(C)nc4c3)n2)cc1S(N)(=O)=O [Pazopanib] (1000 nM) showed normalised response equal to 101

The molecule COc1ccc(-c2cc3c(C)nc(N)nc3n([C@H]3CC[C@H](OCCO)CC3)c2=O)cn1 (10000 nM) showed normalised response equal to 41.4

The molecule Cn1cc(CNCC2CCN(c3ncc(C(=O)NO)cn3)CC2)c2ccccc21 [Quisinostat] (100 nM) showed normalised response equal to 80

###

Tested on: MDA-MB-231
test-method-notes: drug sensitivity score (DSS), CellTox Green (DSS (AUC-based score)); higher = stronger drug effect (viability inhibition or cytotoxicity); extreme values may be limits of the assay
test-parameters: incubation time: 72 h
Returns t if the recorded drug sensitivity score is greater than or equal to 9, and f otherwise.

Ask | Determine whether this molecule has drug sensitivity score no lower than 9: "Cn1cc(CNCC2CCN(c3ncc(C(=O)NO)cn3)CC2)c2ccccc21"
Reply | t

Ask | Determine whether this molecule has drug sensitivity score no lower than 9: "O=C(NC[C@H](O)CO)c1ccncc1Nc1ccc(I)cc1F"
Reply | t

Ask | Determine whether this molecule has drug sensitivity score no lower than 9: "CS(=O)(=O)N1CCN(Cc2cc3nc(-c4cccc5[nH]ncc45)nc(N4CCOCC4)c3s2)CC1"
Reply | f

Ask | Determine whether this molecule has drug sensitivity score no lower than 9: "CNC(=O)c1cc(Oc2ccc(NC(=O)Nc3ccc(Cl)c(C(F)(F)F)c3)cc2)ccn1"
Reply | f

Ask | Determine whether this molecule has drug sensitivity score no lower than 9: "COc1nc(N)nc2c1ncn2[C@@H]1O[C@H](CO)[C@@H](O)[C@@H]1O"
Reply | f

Ask | Determine whether this molecule has drug sensitivity score no lower than 9: "Cc1nc(Nc2ncc(C(=O)Nc3c(C)cccc3Cl)s2)cc(N2CCN(CCO)CC2)n1"
Reply | f

Ask | Determine whether this molecule has drug sensitivity score no lower than 9: "O=S(=O)(c1cccc2cnccc12)N1CCCNCC1"
Reply | f
